These data points were gathered from patent US10364238B2.

target: Human plasma kallikrein (Homo sapiens (Human), UniProt P03952); assay: Determination of the IC50 for plasma kallikrein; details: 25° C., fluorogenic substrate H-DPro-Phe-Arg-AFC; read-out: IC50 (human PKaI)
Sequence (P03952 391-638): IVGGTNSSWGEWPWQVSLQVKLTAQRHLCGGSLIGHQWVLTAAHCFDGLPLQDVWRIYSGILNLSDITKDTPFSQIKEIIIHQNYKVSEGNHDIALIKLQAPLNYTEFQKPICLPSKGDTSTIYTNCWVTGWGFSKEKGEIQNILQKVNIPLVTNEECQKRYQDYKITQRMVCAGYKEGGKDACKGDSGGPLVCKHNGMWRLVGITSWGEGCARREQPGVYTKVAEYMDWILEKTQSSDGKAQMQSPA
Sequence (P03952 20-390 partner): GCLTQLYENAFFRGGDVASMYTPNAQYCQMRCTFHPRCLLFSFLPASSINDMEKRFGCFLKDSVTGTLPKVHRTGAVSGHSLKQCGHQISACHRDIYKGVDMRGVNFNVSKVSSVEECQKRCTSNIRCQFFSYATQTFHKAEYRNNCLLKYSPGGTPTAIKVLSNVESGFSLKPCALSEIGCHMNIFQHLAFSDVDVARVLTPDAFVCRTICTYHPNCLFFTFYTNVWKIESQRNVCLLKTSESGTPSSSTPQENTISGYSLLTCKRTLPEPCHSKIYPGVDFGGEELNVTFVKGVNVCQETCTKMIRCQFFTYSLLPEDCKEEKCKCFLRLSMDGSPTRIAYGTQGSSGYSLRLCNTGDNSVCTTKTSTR
pIC50: −log10 of the molar value.
READOUT: pIC50

Solved entries:
COc1cccc(CNC(=O)c2cn(Cc3ccc(Cn4ccccc4=O)cc3)c(C)n2)c1F :: 7.36
COCc1nn(Cc2ccc(Cn3ccccc3=O)cc2)cc1C(=O)NCc1ccccc1C(F)(F)F :: 6.47
Cc1cnn(Cc2ccc(Cn3cc(C(=O)NCc4c(C)cccc4C)c(C(F)(F)F)n3)cc2)c1 :: 5.74
Nc1nn(Cc2ccc(Cn3ccccc3=O)cc2)cc1C(=O)NCC1CNc2ccc(Cl)cc2O1 (stereo not shown) :: 7.97
COCc1nn(Cc2ccc(Cn3ccccc3=O)cc2)cc1C(=O)NCc1cccc(OC)n1 :: 5.43

1. COCc1nn(Cc2ccc(Cn3cc(C)cn3)cc2)cc1C(=O)NCc1csc2ccc(Cl)cc12
2. COc1cc(F)c(CNC(=O)c2cn(Cc3ccc(Cn4cc(C)cn4)cc3)nc2C(F)(F)F)c(F)c1
Input: Kindly identify which of 1 and 2 has the larger recorded pIC50 value. Lab log: write the label of the selected item as the result.
Output: 2

* * *

target: Human plasma kallikrein (Homo sapiens (Human)); assay: Determination of the IC50 for plasma kallikrein; settings: 25° C., fluorogenic substrate H-DPro-Phe-Arg-AFC; read-out: IC50 (human PKaI)
pIC50: −log10 of the molar value.
READOUT: pIC50

Cc1cnn(Cc2ccc(Cn3cc(C(=O)NCc4cccc(Cl)c4F)c(C(F)(F)F)n3)cc2)c1 :: 5.95
COCc1nn(Cc2ccc(Cn3ccccc3=O)cc2)cc1C(=O)NCc1c(F)ccc(OC)c1F :: 8.34
NC(=O)c1ccc(CNC(=O)c2cn(Cc3ccc(Cn4ccccc4=O)cc3)nc2C2CC2)cc1 :: 5.74
Cc1cnn(Cc2ccc(Cn3cc(C(=O)NCc4c(F)ccc(Cl)c4F)c(C(F)(F)F)n3)cc2)c1 :: 6.43
COc1ccc(CNC(=O)c2cn(Cc3ccc(Cn4cc(C)cn4)cc3)nc2C(F)(F)F)c(C(F)(F)F)c1 :: 6.13
COc1cccc(CNC(=O)c2cn(Cc3ccc(Cn4ccccc4=O)cc3)nc2N(C)C)c1F :: 7.13

I. COCc1nn(Cc2ccc(Cn3ccccc3=O)cc2)cc1C(=O)NCc1cc(OC)cc(OC)c1
II. COCc1nn(Cc2cnc3cc(Cl)ccc3c2)cc1C(=O)NCc1cccc(OC)c1F
III. COCc1nn(Cc2ccc(Cn3ccccc3=O)cc2)cc1C(=O)NCc1c(F)cccc1C(N)=O
IV. Nc1nn(Cc2ccc(Cn3ccccc3=O)cc2)cc1C(=O)NCc1ccc(OC(F)(F)F)cc1
V. COCc1nn(Cc2ccc(Cn3ccc(C)cc3=O)cc2)cc1C(=O)NCc1c(F)ccc(OC)c1F
Input: Would you mind ranking these compounds by ascending pIC50? Rank them, then answer with their labels in that order.
Output: IV, II, I, V, III

1. NC(=O)c1ccccc1CNC(=O)c1cn(Cc2ccc(Cn3ccccc3=O)cc2)nc1C1CC1
2. CCOc1ccn(Cc2ccc(Cn3cc(C(=O)NCc4c(F)ccc(OC)c4F)c(COC)n3)cc2)c(=O)c1
3. Cc1cnn(Cc2ccc(Cn3cc(C(=O)NCc4c(Cl)cccc4Cl)c(C(F)(F)F)n3)cc2)c1
4. COc1cccc(CNC(=O)c2cn(Cc3ccc(Cn4cc(C)cn4)cc3)nc2C(F)(F)F)c1F
Input: Would you mind ranking these compounds by ascending pIC50? Rank them, then answer with their labels in that order.
Output: 2, 3, 1, 4

* * *

molecular target: Human FXIa (Homo sapiens (Human)); test: Determination of the % inhibition for FXIa; format: biochemical; conditions: 40 μM test compound, 25° C., substrate Z-Gly-Pro-Arg-AFC
Sequence (P03951 388-625): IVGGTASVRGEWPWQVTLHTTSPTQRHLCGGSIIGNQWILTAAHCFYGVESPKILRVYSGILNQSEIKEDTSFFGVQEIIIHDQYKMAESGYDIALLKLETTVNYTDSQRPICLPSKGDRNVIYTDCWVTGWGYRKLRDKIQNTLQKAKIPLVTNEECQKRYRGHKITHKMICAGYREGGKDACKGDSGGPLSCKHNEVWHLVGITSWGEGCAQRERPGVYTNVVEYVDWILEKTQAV
Sequence (P03951 19-387 partner): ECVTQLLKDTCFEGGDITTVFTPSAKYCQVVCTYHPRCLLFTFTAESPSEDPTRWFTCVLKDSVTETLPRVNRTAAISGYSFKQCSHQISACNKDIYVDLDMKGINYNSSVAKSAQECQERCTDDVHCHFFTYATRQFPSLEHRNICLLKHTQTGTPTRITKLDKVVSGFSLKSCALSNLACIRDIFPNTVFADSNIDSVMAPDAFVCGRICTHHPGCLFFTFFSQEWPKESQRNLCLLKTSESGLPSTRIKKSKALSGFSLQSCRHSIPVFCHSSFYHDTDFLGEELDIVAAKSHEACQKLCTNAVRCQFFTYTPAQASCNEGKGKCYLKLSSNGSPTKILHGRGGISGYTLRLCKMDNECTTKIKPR
READOUT: inhibition at 40 µM (%)

CCOc1cccc(CNC(=O)c2cn(Cc3ccc(Cn4cc(C)cn4)cc3)nc2C(F)(F)F)c1 :: 0
COCc1nn(Cc2ccc(Cn3ccccc3=O)cc2)cc1C(=O)NCc1ccccc1C(F)F :: 6
COCc1nn(Cc2ccc(Cn3ccccc3=O)cc2)cc1C(=O)NCc1c(F)cccc1OC(F)F :: 4
CN1CC(CNC(=O)c2cn(Cc3ccc(Cn4ccccc4=O)cc3)nc2N)Oc2cc(Cl)ccc21 (centres unmarked) :: 33
COCc1nn(Cc2ccc(Cn3ccccc3=O)cc2)cc1C(=O)NCc1ccccc1C(=O)OC :: 0
COCc1nn(Cc2ccc(Cn3ccccc3=O)cc2)cc1C(=O)NCc1c(C)cccc1F :: 0
COCc1nn(Cc2ccc(Cn3ccccc3=O)cc2)cc1C(=O)NCc1ccccc1C(F)(F)F :: 0
COCc1nn(Cc2ccc(Cn3ccccc3=O)cc2)cc1C(=O)NCc1cccc(OC(F)F)c1F :: 2

P. COCc1nn(Cc2ccc(Cn3ccc(C)cc3=O)cc2)cc1C(=O)NCc1c(F)ccc(OC)c1F
Q. COCc1nn(Cc2ccc(Cn3ccccc3=O)cc2)cc1C(=O)NCc1cc(F)ccc1F
Input: Kindly identify which of P and Q has the larger recorded inhibition at 40 µM value. Lab log: write the label of the selected item as the result.
Output: P

* * *

target: Human FXIa (Homo sapiens (Human)); test: Determination of the % inhibition for FXIa; format: biochemical; details: 40 μM test compound, 25° C., substrate Z-Gly-Pro-Arg-AFC
READOUT: inhibition at 40 µM (%)

COCc1nn(Cc2ccc(Cn3ccccc3=O)cc2)cc1C(=O)NCc1c(F)ccc(Cl)c1F :: 8
COc1cccc(CNC(=O)c2cn(Cc3ccc(Cn4ccccc4=O)cc3)nc2NC(C)=O)c1F :: 0
COCc1nn(Cc2ccc(Cn3ccncc3=O)cc2)cc1C(=O)NCc1cccc(OC)c1F :: 0
COCc1nn(Cc2ccc(Cn3ccccc3=O)cc2)cc1C(=O)NCc1cnccc1C(F)(F)F :: 0
COCc1nn(Cc2ccc(Cn3ccccc3=O)cc2)cc1C(=O)NCc1c(F)ccc(OC)c1C(F)F :: 14

P. COCc1nn(Cc2ccc(Cn3ccccc3=O)cc2)cc1C(=O)NCc1cc(Cl)ccc1C#N
Q. COCc1nn(Cc2ccc(Cn3ccccc3=O)cc2)cc1C(=O)NCc1c(F)cccc1C(N)=O
R. COCc1nn(Cc2ccc(Cn3ccccc3=O)cc2)cc1C(=O)NCc1cccc(OC)c1C(F)F
S. COc1cccc(CNC(=O)c2cn(Cc3ccc(Cn4ccccc4=O)cc3)nc2N(C)C(C)=O)c1F
Input: Would you mind ranking these compounds by ascending inhibition at 40 µM? Rank them, then answer with their labels in that order.
Output: R, S, P, Q
(R: 0%, S: 1%, P: 5%, Q: 46%)

* * *

molecular target: Human plasma kallikrein (Homo sapiens (Human)); assay: Determination of the IC50 for plasma kallikrein; details: 25° C., fluorogenic substrate H-DPro-Phe-Arg-AFC; read-out: IC50 (human PKaI)
READOUT: IC50 (nM)

Solved entries:
Cc1ccc(CNC(=O)c2cn(Cc3ccc(Cn4cc(C)cn4)cc3)nc2C(F)(F)F)cc1 :: 539
Cc1cnn(Cc2ccc(Cn3cc(C(=O)NCc4cc(Cl)ccc4C(F)(F)F)c(C(F)(F)F)n3)cc2)c1 :: 1060
COCc1nn(Cc2ccc(Cn3ccccc3=O)cc2)cc1C(=O)NCc1cccc(OC)c1F :: 20.2
COCc1nn(Cc2ccc(Cn3ccccc3=O)cc2)cc1C(=O)NCc1ccccc1C(F)F :: 81.1
COCc1nn(Cc2ccc(Cn3ccccc3=O)cc2)cc1C(=O)NCc1ccc(C)cc1F :: 43.3
Cc1cnn(Cc2ccc(Cn3cc(C(=O)NCc4c(F)cc(Cl)cc4F)c(C(F)(F)F)n3)cc2)c1 :: 263
CCc1cccc(CNC(=O)c2cn(Cc3ccc(Cn4ccccc4=O)cc3)nc2COC)c1F :: 135
Cc1cnn(Cc2ccc(Cn3cc(C(=O)NCc4cc(Cl)ccn4)c(C(F)(F)F)n3)cc2)c1 :: 915

a. COc1cccc(CNC(=O)c2cn(Cc3ccc(Cn4ccccc4=O)cc3)nc2NC(C)=O)c1F
b. Cc1cnn(Cc2ccc(Cn3cc(C(=O)NCc4ccc(Cl)cc4F)c(C(F)(F)F)n3)cc2)c1
c. NC(=O)c1cccc(CNC(=O)c2cn(Cc3ccc(Cn4ccccc4=O)cc3)nc2C2CC2)c1
Input: Would you mind ranking these molecules by ascending IC50? Rank them, then answer with their labels in that order.
Output: a, b, c

* * *

molecular target: Human FXIa (Homo sapiens (Human)); assay: Determination of the % inhibition for FXIa; assay type: biochemical; settings: 40 μM test compound, 25° C., substrate Z-Gly-Pro-Arg-AFC
READOUT: inhibition at 40 µM (%)

Solved entries:
COCc1nn(Cc2ccc(Cn3ccccc3=O)cc2)cc1C(=O)NCc1cccc(O)c1F :: 0
COc1cccc(CNC(=O)c2cn(Cc3ccc(N4CCCC4)nc3)nc2C(F)(F)F)c1F :: 10
COCc1nn(Cc2ccc(Cn3ccccc3=O)cc2)cc1C(=O)NCc1cccnc1C(F)(F)F :: 0

a. COc1cccc(CNC(=O)c2cn(Cc3ccc(Cn4ccccc4=O)cc3)nc2N)c1F
b. Nc1nn(Cc2ccc(Cn3ccccc3=O)cc2)cc1C(=O)NCc1cccc(O)c1F
c. COCc1nn(Cc2ccc(Cn3ccccc3=O)cc2)cc1C(=O)NCc1cc(F)cc(OC)c1
Input: Sort the 3 compounds by inhibition at 40 µM; largest first, smallest last. Rank them, then answer with their labels in that order.
Output: a, c, b
